assay: Formation of 1,5-cz-[Ln(Lig)] from Lig and Ln^III ions (metal dependent click-zip), MOPS/NaOH buffer pH 7.0, analytical HPLC (Charts 1, 2); conditions: Tm^III; after 1 hour at 80° C.; MOPS/NaOH buffer pH 7.0
For each record, write down the corresponding conversion to 1,5-cz-[Ln(Lig)], Tm^III.
Give bare numbers, in %.

CC(C)(N)C#Cc1cccc(CN2CCN(CC(=O)O)CCN(Cc3cc(-c4ccccc4)cc(CN=[N+]=[N-])n3)CCN(CC(=O)O)CC2)n1 : 39

Record conversion to 1,5-cz-[Ln(Lig)], Tm^III for all entries; do not skip any.
1. C#Cc1cccc(CN2CCN(CC(=O)O)CCN(Cc3cccc(CN=[N+]=[N-])n3)CCN(CC(=O)O)CC2)n1
2. [N-]=[N+]=NCc1cccc(CN2CCN(CC(=O)O)CCN(Cc3cccc(C#CC4CCNCC4)n3)CCN(CC(=O)O)CC2)n1
3. [N-]=[N+]=NCc1cccc(CN2CCN(CC(=O)O)CCN(Cc3cccc(C#CI)n3)CCN(CC(=O)O)CC2)n1
4. C#CCN(CC#C)CCN1CCN(CC(=O)O)CCN(Cc2cc(-c3ccccc3)cc(CN=[N+]=[N-])n2)CCN(CC(=O)O)CC1
5. C#Cc1cccc(CN2CCN(CC(=O)NCC(=O)O)CCN(Cc3cc(-c4ccccc4)cc(CN=[N+]=[N-])n3)CCN(CC(=O)NCC(=O)O)CC2)n1

[52, 7, 11, 0, 31]

Indicate its recorded conversion to 1,5-cz-[Ln(Lig)], Tm^III; the molecule in question is C#Cc1cccc(CN2CCN(CC(N)=O)CCN(Cc3cc(-c4ccccc4)cc(CN=[N+]=[N-])n3)CCN(CC(N)=O)CC2)n1
9
